Measured On: Androgen receptor (Homo sapiens)
Condition Context: at 10 µM
Description: Antagonist activity at androgen receptor (unknown origin) expressed in COS-7 cells assessed as inhibition of R1881-induced MMTV promoter activity at 10 uM by luciferase reporter gene assay relative to control
Calls of active or inactive are those of the source. The rule behind the calls is not given here.
Measured Endpoint: inhibition

Compound: CCNC(=O)c1ccc2c(c1)N1C(=S)N(c3ccc(C#N)c(C(F)(F)F)c3)C(=O)C1C2 (configuration not stated)
Measured On: Androgen receptor (Homo sapiens)
Measured Endpoint: inhibition
Value Measured: 2.1%
//
Compound: N#Cc1ccc(N2C(=O)C3Cc4ccc(I)cc4N3C2=S)cc1C(F)(F)F (configuration not stated)
Measured On: Androgen receptor (Homo sapiens)
Measured Endpoint: inhibition
Value Measured: 58.4%
//
Compound: CC(C)CNC(=O)c1cc2c(cc1F)N1C(=S)N(c3ccc(C#N)c(C(F)(F)F)c3)C(=O)C1C2 (configuration not stated)
Measured On: Androgen receptor (Homo sapiens)
Measured Endpoint: inhibition
Value Measured: inactive
//
Compound: N#Cc1ccc(N2C(=O)C3Cc4ccc(N)cc4N3C2=S)cc1C(F)(F)F (configuration not stated)
Measured On: Androgen receptor (Homo sapiens)
Measured Endpoint: inhibition
Value Measured: 29%
//
Compound: N#Cc1ccc(N2C(=O)C3Cc4cc(Br)ccc4N3C2=S)cc1C(F)(F)F (configuration not stated)
Measured On: Androgen receptor (Homo sapiens)
Measured Endpoint: inhibition
Value Measured: 57.1%
//
Compound: N#Cc1ccc(N2C(=O)C3Cc4ccc(C(=O)NCCO)cc4N3C2=S)cc1C(F)(F)F (configuration not stated)
Measured On: Androgen receptor (Homo sapiens)
Measured Endpoint: inhibition
Value Measured: 37%
//
Compound: CC(O)CNC(=O)c1ccc2c(c1)N1C(=S)N(c3ccc(C#N)c(C(F)(F)F)c3)C(=O)C1C2 (configuration not stated)
Measured On: Androgen receptor (Homo sapiens)
Measured Endpoint: inhibition
Value Measured: 39.3%
//
Compound: C[C@]1(O)CC[C@H]2[C@@H]3CCC4=CC(=O)CCC4=C3C=C[C@@]21C
Measured On: Androgen receptor (Homo sapiens)
Measured Endpoint: inhibition
Value Measured: inactive

Request: Please report the recorded inhibition for N#Cc1ccc(N2C(=O)C3Cc4cc([N+](=O)[O-])ccc4N3C2=S)cc1C(F)(F)F (configuration not stated) .
Result: 21.8%

Request: // inhibition lookup, key: CCNC(=O)c1cc2c(cc1F)N1C(=S)N(c3ccc(C#N)c(C(F)(F)F)c3)C(=O)C1C2 (configuration not stated)
Result: inactive

Request: # get_value(readout='inhibition', item= N#Cc1ccc(N2C(=O)C3Cc4cc(N)ccc4N3C2=S)cc1C(F)(F)F (configuration not stated) )
Result: 23.4%

Request: // query inhibition value for entry N#Cc1ccc(N2C(=O)c3cc4ccccc4n3C2=S)cc1C(F)(F)F
Result: 21.1%

Request: # inhibition lookup, item CCCCNC(=O)c1ccc2c(c1)N1C(=S)N(c3ccc(C#N)c(C(F)(F)F)c3)C(=O)C1C2 (configuration not stated)
Result: inactive

Request: Given the compound N#Cc1ccc(N2C(=O)C3Cc4cc(Cl)ccc4N3C2=S)cc1C(F)(F)F (configuration not stated) , what is its reported inhibition?
Result: 6.7%

###

Measured On: Androgen receptor (Homo sapiens) (UniProt P10275)
Sequence (P10275 whole entry): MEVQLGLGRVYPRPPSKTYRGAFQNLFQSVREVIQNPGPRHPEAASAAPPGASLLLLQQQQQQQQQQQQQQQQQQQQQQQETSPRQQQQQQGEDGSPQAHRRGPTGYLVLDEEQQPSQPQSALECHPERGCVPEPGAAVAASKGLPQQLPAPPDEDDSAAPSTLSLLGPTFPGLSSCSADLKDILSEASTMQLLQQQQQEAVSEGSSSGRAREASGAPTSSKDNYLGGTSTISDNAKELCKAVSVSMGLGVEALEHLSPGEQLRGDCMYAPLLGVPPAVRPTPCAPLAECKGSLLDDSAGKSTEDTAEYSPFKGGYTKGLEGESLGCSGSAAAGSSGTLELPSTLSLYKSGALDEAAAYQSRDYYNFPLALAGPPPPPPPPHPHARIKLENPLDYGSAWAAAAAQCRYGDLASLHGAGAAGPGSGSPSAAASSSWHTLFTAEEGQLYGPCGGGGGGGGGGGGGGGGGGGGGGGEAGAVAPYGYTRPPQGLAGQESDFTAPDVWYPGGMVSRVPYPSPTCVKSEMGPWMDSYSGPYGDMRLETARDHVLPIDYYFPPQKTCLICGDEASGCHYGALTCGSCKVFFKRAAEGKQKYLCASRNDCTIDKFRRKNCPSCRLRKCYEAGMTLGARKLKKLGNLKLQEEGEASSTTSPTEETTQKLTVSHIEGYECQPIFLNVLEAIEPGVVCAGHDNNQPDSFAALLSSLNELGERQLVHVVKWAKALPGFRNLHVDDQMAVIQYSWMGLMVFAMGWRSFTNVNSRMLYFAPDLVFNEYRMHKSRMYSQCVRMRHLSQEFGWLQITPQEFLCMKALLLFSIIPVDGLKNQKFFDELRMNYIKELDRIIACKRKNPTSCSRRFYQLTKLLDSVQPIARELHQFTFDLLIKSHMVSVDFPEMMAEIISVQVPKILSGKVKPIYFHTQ
Condition Context: at 10 µM
Activity calls are given as the source filed them. The calls are words filed in the database; no cut-off is given here.
Measured Endpoint: inhibition

Please review the entries below; each comes with its answer.
Compound: N#Cc1ccc(N2C(=O)C3Cc4ccc(C(=O)NC5CCCCC5)cc4N3C2=S)cc1C(F)(F)F (stereo not drawn)
Measured Endpoint: inhibition
Value Measured: 22.9%
//
Compound: CNC(=O)c1cc2c(cc1F)N1C(=S)N(c3ccc(C#N)c(C(F)(F)F)c3)C(=O)C1C2 (stereo not drawn)
Measured Endpoint: inhibition
Value Measured: inactive
//
Compound: N#Cc1ccc(N2C(=O)C3CCCN3C2=S)cc1C(F)(F)F (stereo not drawn)
Measured Endpoint: inhibition
Value Measured: 32%
//
Compound: N#Cc1ccc(N2C(=O)C3Cc4cc(C(=O)NC5CCCCC5)c(F)cc4N3C2=S)cc1C(F)(F)F (stereo not drawn)
Measured Endpoint: inhibition
Value Measured: 55.1%
//
Compound: N#Cc1ccc(N2C(=O)C3CC(O)CN3C2=S)cc1C(F)(F)F (stereo not drawn)
Measured Endpoint: inhibition
Value Measured: 1.9%
//
Compound: N#Cc1ccc(N2C(=O)C3Cc4ccc(Cl)cc4N3C2=S)cc1C(F)(F)F (stereo not drawn)
Measured Endpoint: inhibition
Value Measured: 71.9%
//
Compound: CCCNC(=O)c1cc2c(cc1F)N1C(=S)N(c3ccc(C#N)c(C(F)(F)F)c3)C(=O)C1C2 (stereo not drawn)
Measured Endpoint: inhibition
Value Measured: inactive
//
Compound: CCCNC(=O)c1ccc2c(c1)N1C(=S)N(c3ccc(C#N)c(C(F)(F)F)c3)C(=O)C1C2 (stereo not drawn)
Measured Endpoint: inhibition
Value Measured: inactive
//
Compound: N#Cc1ccc(N2C(=O)C3CC4CCCCC4N3C2=S)cc1C(F)(F)F (stereo not drawn)
Measured Endpoint: inhibition
Value Measured: 50.5%
//
Compound: CNC(=O)c1ccc2c(c1)N1C(=S)N(c3ccc(C#N)c(C(F)(F)F)c3)C(=O)C1C2 (stereo not drawn)
Measured Endpoint: inhibition
Value Measured: 13.1%

Request: Which inhibition value is on record for N#Cc1ccc(N2C(=O)C3Cc4ccc([N+](=O)[O-])cc4N3C2=S)cc1C(F)(F)F (stereo not drawn) ?
Result: 58.2%

Request: Sample CCCCNC(=O)c1cc2c(cc1F)N1C(=S)N(c3ccc(C#N)c(C(F)(F)F)c3)C(=O)C1C2 (stereo not drawn) — what was its inhibition?
Result: inactive

Request: inhibition for N#Cc1ccc(N2C(=O)C3Cc4ccc(Br)cc4N3C2=S)cc1C(F)(F)F (stereo not drawn) ?
Result: 68.3%
